Reported pIC50, Macrophage colony-stimulating factor 1 receptor (Homo sapiens, UniProt P07333).
pIC50: −log10 of the molar value.
readout_kind: pIC50

{"columns": ["compound_string", "pIC50"],
 "data": [
  ["COc1cc2c(Nc3ccc(F)cc3F)c(C(N)=O)cnc2cc1N1CCN(C)CC1", 7.96],
  ["CCOc1cc2ncc(C(N)=O)c(Nc3ccc(F)cc3F)c2cc1N1CCN(C)CC1", 8.22],
  ["COc1cc2c(Nc3ccc(Cl)c(Cl)c3)c(C(N)=O)cnc2cc1N1CCN(C)CC1", 7.62],
  ["CN1CCN(c2ccc3ncc(C(N)=O)c(Nc4ccc(Cl)cc4Cl)c3c2)CC1", 6.89]
]}

(1) CN1CCN(c2ccc3ncc(C(N)=O)c(Nc4ccc(F)cc4F)c3c2)CC1
(2) COc1cc2ncc(C(N)=O)c(Nc3ccc(F)cc3F)c2cc1N1CCN(C)CC1
When their pIC50 values are compared, which is larger, 1 or 2 ? # respond with the chosen item's label
2
(2: 8.22, 1: 6.96)

----------
- procedure_summary: Bioavailability in rat at 3 mg/kg, iv and 10 mg/kg, po
- Type: ADME, organism-based
- study_conditions: in vivo
readout_kind: bioavailability (%)

{"columns": ["compound_string", "reported_value"],
 "data": [
  ["CCOc1cc2ncc(C(N)=O)c(Nc3cccc(Cl)c3Cl)c2cc1N1CCN(C)CC1", 100]
]}

(a) CCOc1cc2ncc(C(N)=O)c(Nc3ccc(F)c(Cl)c3)c2cc1N1CCN(C)CC1
(b) CCOc1cc2ncc(C(N)=O)c(Nc3ccc(F)cc3F)c2cc1N1CCN(C2CC2)CC1
(c) CCOc1cc2ncc(C(N)=O)c(Nc3cccc(Cl)c3Cl)c2cc1N1CCN(C(=O)CO)CC1
(d) COCCOc1cc2ncc(C(N)=O)c(Nc3ccc(F)cc3F)c2cc1N1CCN(C)CC1
(e) CCOc1cc2ncc(C(N)=O)c(Nc3cccc(Cl)c3Cl)c2cc1N1CCN(C(C)=O)CC1
Ascending by bioavailability, please: list the compounds accordingly. List each label, following the requested order.
c, e, b, a, d

----------
- procedure_summary: Aqueous solubility of the compound
- Assay type: physicochemical
- study_conditions: buffer
readout_kind: solubility (µM)

Examples with their reported solubility follow.
{"columns": ["compound_string", "readout_kind", "reported_value"],
 "data": [
  ["COCCOc1cc2ncc(C(N)=O)c(Nc3cccc(Cl)c3F)c2cc1N1CCN(C)CC1", "solubility", 910],
  ["CCOc1cc2ncc(C(N)=O)c(Nc3cccc(Cl)c3Cl)c2cc1N1CCN(CC)CC1", "solubility", 11],
  ["CCOc1cc2ncc(C(N)=O)c(Nc3ccc(F)cc3F)c2cc1N1CCN(C)CC1", "solubility", 290],
  ["CCOc1cc2ncc(C(N)=O)c(Nc3ccc(F)cc3F)c2cc1N1CCC(O)CC1", "solubility", 2]
]}

(A) CC(C)Oc1cc2ncc(C(N)=O)c(Nc3ccc(Cl)c(Cl)c3)c2cc1N1CCN(C)CC1
(B) COCCOc1cc2ncc(C(N)=O)c(Nc3ccc(C)cc3F)c2cc1N1CCN(C)CC1
In the pair A and B , the larger recorded solubility belongs to which? Refer to your chosen entry by its label in the reply.
A
(A: 250 µM, B: 63 µM)

----------
- procedure_summary: Aqueous solubility of the compound
- Format: physicochemical
- study_conditions: buffer
readout_kind: solubility (µM)

{"columns": ["compound_string", "solubility [µM]"],
 "data": [
  ["CN1CCN(c2ccc3ncc(C(N)=O)c(Nc4ccc(Cl)c(Cl)c4)c3c2)CC1", 720],
  ["CCOc1cc2ncc(C(N)=O)c(Nc3cccc(Cl)c3Cl)c2cc1N1CCN(C(=O)CO)CC1", 29]
]}

(a) CCOc1cc2ncc(C(N)=O)c(Nc3cccc(Cl)c3F)c2cc1N1CCN(C)CC1
(b) CCOc1cc2ncc(C(N)=O)c(Nc3cc(C)ccc3F)c2cc1N1CCN(C)CC1
Of a and b , which one carries the higher reported solubility? Response format: the label of the selected entry.
b
(b: 66 µM, a: 10 µM)

(P) CCOc1cc2ncc(C(N)=O)c(Nc3cccc(Cl)c3Cl)c2cc1N1CCN(CCOC)CC1
(Q) CCOc1cc2ncc(C(N)=O)c(Nc3ccc(F)cc3F)c2cc1N1CCN(CC)CC1
# returns the entry with the larger solubility; inputs P and Q In your reply, give the label of the chosen option.
Q

----------
- procedure_summary: Plasma protein binding assessed as percentage unbound
readout_kind: fraction unbound

{"columns": ["compound_string", "fraction unbound"],
 "data": [
  ["CCOc1cc2ncc(C(N)=O)c(Nc3cccc(Cl)c3Cl)c2cc1N1CCCN(C(C)C)CC1", 0.049]
]}

(P) COCCOc1cc2ncc(C(N)=O)c(Nc3cccc(Cl)c3Cl)c2cc1N1CCN(C)CC1
(Q) CCOc1cc2ncc(C(N)=O)c(Nc3cccc(Cl)c3Cl)c2cc1N1CCCN(C)CC1
(R) CC(C)Oc1cc2ncc(C(N)=O)c(Nc3cccc(Cl)c3F)c2cc1N1CCN(C)CC1
(S) CCOc1cc2ncc(C(N)=O)c(Nc3cccc(Cl)c3Cl)c2cc1N1CCN(C(=O)CO)CC1
Ascending by fraction unbound, please. // rank by listing labels in the order requested
Q, R, P, S
(Q: 0.019, R: 0.049, P: 0.1, S: 0.16)

----------
- procedure_summary: Plasma protein binding assessed as percentage unbound
readout_kind: fraction unbound

{"columns": ["compound_string", "reported_value"],
 "data": [
  ["COc1cc2ncc(C(N)=O)c(Nc3ccc(F)cc3F)c2cc1N1CCN(C)CC1", 0.25]
]}

(a) COc1cc2ncc(C(N)=O)c(Nc3ccc(Cl)c(Cl)c3)c2cc1N1CCN(C)CC1
(b) CCOc1cc2ncc(C(N)=O)c(Nc3cccc(Cl)c3Cl)c2cc1N1CCN(CCOC)CC1
API: POST /compare with a and b ; response names the item with higher fraction unbound. Answer format: the label of the selected item.
a
(a: 0.036, b: 0.017)

(A) CN1CCN(c2cc3c(Nc4ccc(F)cc4F)c(C(N)=O)cnc3cc2F)CC1
(B) CCOc1cc2ncc(C(N)=O)c(Nc3cccc(Cl)c3Cl)c2cc1N1CCN(CC)CC1
Would you let me know which has the greater fraction unbound value, A or B ? Please respond with the label that marks your chosen entry.
A
(A: 0.24, B: 0.019)

(I) CCOc1cc2ncc(C(N)=O)c(Nc3cccc(Cl)c3Cl)c2cc1N1CCN(C)CC1
(II) CCOc1cc2ncc(C(N)=O)c(Nc3ccc(F)cc3F)c2cc1N1CCN(C)CC1
Please choose the item with the lower fraction unbound value from this pair: I and II Let me know the label of the one you choose.
I
(I: 0.02, II: 0.11)

(P) CN1CCN(c2cc3c(Nc4cccc(Cl)c4Cl)c(C(N)=O)cnc3cc2F)CC1
(Q) CN1CCN(c2ccc3ncc(C(N)=O)c(Nc4ccc(F)cc4F)c3c2)CC1
(R) CCOc1cc2ncc(C(N)=O)c(Nc3cccc(Cl)c3F)c2cc1N1CCN(C)CC1
(S) CC(C)Oc1cc2ncc(C(N)=O)c(Nc3ccc(F)cc3F)c2cc1N1CCN(C)CC1
(T) COCCOc1cc2ncc(C(N)=O)c(Nc3cc(C)ccc3F)c2cc1N1CCN(C)CC1
Ascending by fraction unbound, please. Answer by naming the labels in the order asked.
S, P, R, T, Q

(A) CCOc1cc2ncc(C(N)=O)c(Nc3cccc(Cl)c3Cl)c2cc1N1CCN(CCO)CC1
(B) CC(C)Oc1cc2ncc(C(N)=O)c(Nc3ccc(Cl)c(Cl)c3)c2cc1N1CCN(C)CC1
// which entry has the larger fraction unbound value, A or B ? Provide the label of your selected option as the answer.
A

(A) CN1CCN(c2ccc3ncc(C(N)=O)c(Nc4ccc(Cl)c(Cl)c4)c3c2)CC1
(B) CCOc1cc2ncc(C(N)=O)c(Nc3ccc(F)cc3F)c2cc1N1CCCN(C2CC2)CC1
When A and B are compared, which has the higher number for fraction unbound? Refer to your chosen item by its label in the answer.
A
(A: 0.058, B: 0.022)

(1) CCOc1cc2ncc(C(N)=O)c(Nc3ccc(F)c(Cl)c3)c2cc1N1CCN(C)CC1
(2) CCOc1cc2ncc(C(N)=O)c(Nc3cc(F)ccc3F)c2cc1N1CCN(C)CC1
Short answer wanted: higher fraction unbound, 1 or 2 ? Answer by quoting the chosen item's label.
2
(2: 0.073, 1: 0.034)

(1) COc1cc2ncc(C(N)=O)c(Nc3ccc(Cl)cc3Cl)c2cc1N1CCN(C)CC1
(2) CCOc1cc2ncc(C(N)=O)c(Nc3ccc(F)cc3F)c2cc1N1CCN(CC)CC1
(3) CN1CCN(c2ccc3ncc(C(N)=O)c(Nc4ccc(Cl)cc4Cl)c3c2)CC1
(4) CCOc1cc2ncc(C(N)=O)c(Nc3ccc(F)cc3F)c2cc1N1CCC(O)CC1
(5) COCCOc1cc2ncc(C(N)=O)c(Nc3cccc(Cl)c3F)c2cc1N1CCN(C)CC1
Could you please order the items by fraction unbound, going from the lowest number to the highest? Reply: labels, ordered per the request.
3, 1, 2, 4, 5
(3: 0.018, 1: 0.032, 2: 0.046, 4: 0.089, 5: 0.39)
